Source listed as the Immune Epitope Database (IEDB).

# SYSTEM: HLA-B*15:01
# PROTOCOL_NOTES: IEDB peptide-MHC binding, purified MHC/competitive/radioactivity; filed as Kd, often an IC50 or EC50 that approximates it; bounds were set here for any values at or beyond the usual limits of such assays
# EXPERIMENTAL_PARAMETERS: source organism: Dengue virus 1 Brazil/97-11/1997
RECORDED_METRIC: Kd (nM)
Only the number, expressed in nM, is required.

Example cases with answers are listed next.
   sequence_entry  recorded_number
0      RVIQLSRKTF             45.2
1      LMLLPTALAF             0.82
2       AVLMLVAHY             51.2
3       KLHSGKDVF             4.82

Next sequence, Kd to be filled in.
Lab entry: HLA-B*15:01 assay, sequence SVKKDLISY , Kd = 5.96

----------
# SYSTEM: HLA-B*57:01
# PROTOCOL_NOTES: IEDB peptide-MHC binding, purified MHC/competitive/fluorescence; filed as Kd, often an IC50 or EC50 that approximates it; bounds were set here for any values at or beyond the usual limits of such assays
# EXPERIMENTAL_PARAMETERS: source organism: Zaire ebolavirus
Kd values by entry

Example cases with answers are listed next.
>>> print(df.to_string())
   sequence_entry   result
0       HLPGFGTAF  ≥ 20 µM
1       LSDLCNFLV  ≥ 20 µM

Form field Kd, entry LEARVNLSV : ≥ 20 µM

----------
# SYSTEM: HLA-A*32:01
# PROTOCOL_NOTES: IEDB peptide-MHC binding, purified MHC/competitive/radioactivity; filed as Kd, often an IC50 or EC50 that approximates it; bounds were set here for any values at or beyond the usual limits of such assays
# EXPERIMENTAL_PARAMETERS: source organism: Dengue virus 1 Brazil/97-11/1997
RECORDED_METRIC: pKd
A value of pKd is the negative decimal logarithm of a concentration given in moles per litre.

Form field pKd, entry PATLFVWYFW : 4.81

----------
# SYSTEM: HLA-B*15:01
# PROTOCOL_NOTES: IEDB peptide-MHC binding, purified MHC/direct/fluorescence; filed as Kd, often an IC50 or EC50 that approximates it; bounds were set here for any values at or beyond the usual limits of such assays
# EXPERIMENTAL_PARAMETERS: source organism: Mycobacterium tuberculosis
RECORDED_METRIC: Kd

>>> df
   sequence_entry      result
0       KLVGIELPK  ≥ 20000 nM

Form field Kd, entry SPREECGVF : 1200 nM

----------
# SYSTEM: HLA-B*39:01
# PROTOCOL_NOTES: IEDB peptide-MHC binding, purified MHC/competitive/fluorescence; filed as Kd, often an IC50 or EC50 that approximates it; bounds were set here for any values at or beyond the usual limits of such assays
# EXPERIMENTAL_PARAMETERS: source organism: Vibrio cholerae 2740-80
pKd: −log10 of the molar value.
RECORDED_METRIC: pKd

Form field pKd, entry CERYGFPAS : ≤ 4.70

----------
# SYSTEM: HLA-B*57:01
# PROTOCOL_NOTES: IEDB peptide-MHC binding, purified MHC/competitive/fluorescence; filed as Kd, often an IC50 or EC50 that approximates it; bounds were set here for any values at or beyond the usual limits of such assays
# EXPERIMENTAL_PARAMETERS: source organism: Entamoeba histolytica HM-1:IMSS
RECORDED_METRIC: Kd

Form field Kd, entry KVSVGSYFC : ≥ 20 µM
